B1: C1orf55 (parent)
chain: FTSPDYQQQCHEMAERLEDSVLKG

- Variants of: B1
- MEASUREMENT NOTES: protein stability index of a GFP-peptide fusion (GPS, HEK-293T) (PSI 1-6); higher = more stable;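 note: lentivirally expressed fusions sorted by FACS into six bins by GFP to DsRed ratio, PSI derived from sequencing read proportions per bin multiplied by bin number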
- EXPERIMENTAL CONDITIONS: c terminus: a fixed tail appended
RESULT TYPE: protein stability index
# print the numeric value only

L17V : 2.35

Fill in protein stability index for record A14G 2.48

Identify protein stability index associated with the variant S3Y 3.13

Tell me measured protein stability index for K23P please. 2.35

Return the recorded protein stability index value; entry: F1R 3.98

Specify protein stability index for R16G and stop. 2.49

Give me measured protein stability index, please, for this variant: E15V 2.42

Specify measured protein stability index for K23C . 1.79

Fill in protein stability index for record V21G 2.09

Could you please provide reported protein stability index for S3T ? Thanks! 2.52

Return protein stability index (reported value) for this variant: A14E 2.63

Note down protein stability index recorded for K23R 2.57

Fill in protein stability index for record S20D 2.3

Given the variant F1N , write its reported protein stability index. 4.84

Supply recorded protein stability index for E18W here. 1.55

For the variant H11P , give its reported protein stability index. 2.66

Please look at this variant and report its protein stability index: P4S 2.26

Give a short answer stating reported protein stability index for E18C . 1.99

Measured values drawn from the supplement of paper PMC10567573 for this set.
